Target: furin, P09958;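 also: purified furin at 1:10 enzyme:substrate in 50 mM HEPES pH 7.5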
Sequence (P09958 whole entry): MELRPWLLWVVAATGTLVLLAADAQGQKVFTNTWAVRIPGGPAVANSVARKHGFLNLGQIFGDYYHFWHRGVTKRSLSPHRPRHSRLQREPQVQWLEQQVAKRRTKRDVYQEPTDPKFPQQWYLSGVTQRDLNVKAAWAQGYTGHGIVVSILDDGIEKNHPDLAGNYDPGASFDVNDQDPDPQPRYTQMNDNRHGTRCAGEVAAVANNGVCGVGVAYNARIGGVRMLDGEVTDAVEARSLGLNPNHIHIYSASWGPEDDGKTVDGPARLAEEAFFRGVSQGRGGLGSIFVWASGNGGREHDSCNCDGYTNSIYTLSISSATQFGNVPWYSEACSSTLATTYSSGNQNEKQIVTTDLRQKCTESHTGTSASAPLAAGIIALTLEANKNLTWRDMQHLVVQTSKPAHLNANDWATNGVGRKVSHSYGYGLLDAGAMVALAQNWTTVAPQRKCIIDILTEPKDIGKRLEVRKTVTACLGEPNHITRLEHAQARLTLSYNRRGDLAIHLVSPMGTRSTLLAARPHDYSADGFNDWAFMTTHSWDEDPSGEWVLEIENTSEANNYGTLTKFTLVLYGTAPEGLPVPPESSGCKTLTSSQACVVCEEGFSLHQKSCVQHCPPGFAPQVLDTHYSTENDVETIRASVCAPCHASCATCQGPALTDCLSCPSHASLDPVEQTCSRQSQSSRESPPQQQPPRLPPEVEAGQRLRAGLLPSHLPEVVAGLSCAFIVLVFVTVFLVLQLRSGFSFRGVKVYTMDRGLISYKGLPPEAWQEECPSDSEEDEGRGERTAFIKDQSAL
Assay: furin cleavage Z-score vs untreated control; higher = more cleavage, active = 3.5 or more, inactive = 1 or less, 8 variable residues between constant flanks
Details: 7.5 min
This is one part of the list. No count for the full screen is at hand.
Give T when the value for furin cleavage Z-score is at least -0.9. Give F when it is less.

• CAEVEVPCHRAGNASASA [HC2450] = T
• CARVTAILSSAGNASASA [HC1132] = T
• CALGIRSFRNAGNASASA [TR6] = T
• CANGVCWTVYAGNASASA [HC698] = F
• CAIPPLNVRGAGNASASA [HC591] = F

Threshold query (furin cleavage Z-score >= -0.9) on CAVGIYLLPNAGNASASA [HC1662] T

Threshold query (furin cleavage Z-score >= -0.9) on CATFTIETITAGNASASA [HC895] F

Threshold query (furin cleavage Z-score >= -0.9) on CATTCCSGSWAGNASASA [HC1880] T
